molecular target: Cannabinoid receptor 1 (Rattus norvegicus); test: Agonist activity at rat CB1 receptor expressed in HEK293 cells assessed as inhibition of forskolin-induced cAMP level
Sequence (P20272 whole entry): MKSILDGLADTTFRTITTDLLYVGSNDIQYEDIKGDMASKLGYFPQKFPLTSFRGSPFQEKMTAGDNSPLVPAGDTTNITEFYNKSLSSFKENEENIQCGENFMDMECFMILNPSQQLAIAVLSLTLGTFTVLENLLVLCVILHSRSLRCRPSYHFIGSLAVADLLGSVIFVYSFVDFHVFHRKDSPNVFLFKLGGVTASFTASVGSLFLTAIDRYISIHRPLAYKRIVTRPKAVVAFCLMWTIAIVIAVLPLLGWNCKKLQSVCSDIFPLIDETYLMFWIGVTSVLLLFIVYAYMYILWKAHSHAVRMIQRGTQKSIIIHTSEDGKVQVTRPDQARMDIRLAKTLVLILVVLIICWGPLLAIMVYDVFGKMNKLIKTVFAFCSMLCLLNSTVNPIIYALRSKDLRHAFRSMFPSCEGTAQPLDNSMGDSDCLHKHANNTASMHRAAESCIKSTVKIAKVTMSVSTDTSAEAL
measurement-kind: EC50 (nM)
One number for each entry, in nM.

INPUT: Please report the recorded EC50 for CCCCCCC(C)(C)c1cc(O)c2c(c1)OC(C)(C)[C@@H]1CCC(=O)OC[C@@H]21 .
OUTPUT: 184

----------
Here's what we have: pKi numbers for Cannabinoid receptor 1 (Rattus norvegicus, UniProt P20272).
pKi: −log10 of the molar value.

Below: 2 molecules and their reported pKi.
smiles	study-system	pKi
CCCCCCC(C)(C)c1cc(O)c2c(c1)OC(C)(C)[C@H](CCC(=O)O)[C@H]2CO	Cannabinoid receptor 1 (Rattus norvegicus, UniProt P20272)	< 6.00
CCCCCCC(C)(C)c1cc(O)c2c(c1)OC(C)(C)[C@H](CCO)[C@H]2CC(=O)O	Cannabinoid receptor 1 (Rattus norvegicus, UniProt P20272)	< 6.00

INPUT: Please report the recorded pKi for CCCCCCC(C)(C)c1cc(O)c2c(c1)OC(C)(C)[C@@H]1CCC(=O)OC[C@@H]21 .
OUTPUT: 8.34
